Field: growth inhibition. Provide a value for each of the compounds that follow.
- protocol summary: S. cerevisiae growth inhibition in restrictive medium, OD615, pilot screen, restrictive growth control, yeast lifespan reduction project (AID 706);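 also: modified DeaD lifespan yeast strain shifted to restrictive glucose medium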
- reported conditions: OD615, 48 h, at 10 µM, stronger effect = higher value
Answers are plain numbers, in %.

Examples with answers:
compound | unit | result
COc1ccc(NC(=O)Nc2ccc(N3CCCC3=O)cc2)cc1OC | % | 3.45
COc1ccc(N2CCN(C(=O)C34CCC(C)(C(=O)C3)C4(C)C)CC2)cc1 (centres undefined) | % | 0.815
COCCNC(=O)c1ccc(CS(=O)(=O)c2c(Cl)cccc2Cl)o1 | % | -11.8

Below is a list of compounds. For each, state its recorded growth inhibition.
1. O=C1C(=O)N(CCCn2ccnc2)C(c2cccnc2)/C1=C(/O)c1ccc(Cl)cc1 (centres undefined)
2. COc1ccc(OC)c(NC(=O)Cn2cnc3c(cnn3-c3ccccc3)c2=O)c1
3. CCOc1ccc(S(=O)(=O)n2c(C)nc3ccccc32)cc1
4. CC(=O)N1CCc2c(sc(NC(=O)c3ccc(S(=O)(=O)N(C)C)cc3)c2C#N)C1
5. CCOC(=O)c1ccc(N2C(=O)C3CC=C(C)CC3C2=O)cc1 (centres undefined)
6. O=C(Nc1cccc(Cl)c1)N1CCN(Cc2ccccc2)CC1
7. COCCn1c(SCC(=O)N2CCc3ccccc32)nc2c(c1=O)SC(C)C2 (centres undefined)
8. COC(=O)Cn1cnc2c(nnn2-c2cccc(Cl)c2)c1=O

Solution:
1: -4.88; 2: 7.43; 3: 0.25; 4: 4.39; 5: -14.8; 6: -8.27; 7: 13.2; 8: 0.135

Provide growth inhibition values for the following items, in order.
1. COc1cc(OC)c(NS(=O)(=O)c2coc(C(N)=O)c2)cc1Cl
2. CCOc1ccccc1NC(=O)CC1Nc2cc(C)c(C)cc2NC1=O (centres undefined)
3. CC1CCN(c2oc(-c3ccccc3F)nc2C#N)CC1

Solution:
1. -4.55
2. -12.1
3. -13.1

###

Would you kindly list viability for each of these molecules?
- protocol summary: H69AR cell proliferation blockers – human, duplicate replicates, primary screen (AID 580);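 also: 100% = mean luminescence of untreated wells and 0% = no signal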
- reported conditions: H69AR lung tumor cells viability, ATP luminescence, 72 h; at 10 µM; stronger effect = lower value
Answers are plain numbers, in %.

molecule | viability, %
CC(=O)NCc1nc2ccccc2n1C(C)C | 92.3
Cc1c(NC(=O)C2CCCCN2S(=O)(=O)c2ccc(Cl)cc2)c(=O)n(-c2ccccc2)n1C (stereo not drawn) | 91.3

Now let's try a different one.
Problem: If you can, please state the reported viability value of C=CCn1c(SC(C)C(=O)NC2(C#N)CCCCC2)nnc1-c1ccc(OC)cc1 (stereo not drawn) .
Solution: 92.2

###

- protocol summary: growth suppression of yeast trafficking mutant, preliminary HTS, modulators of trafficking downstream of Golgi apparatus project, 1536-format plate, OD 615 nm (AID 637)
- reported conditions: yeast transport mutant growth, absorbance 615 nm, 18 h; stronger effect = higher value
For each entry below, report its inhibition value.
Numbers only, in %.

Guide cases for inhibition, answers given:
compound | observable | unit | result
O=C(Nc1ccc2c(c1)OCO2)c1ccc(CN2CCOCC2)cc1 | inhibition | % | 7.1
O=S(=O)(c1ccc(F)cc1)N1CCC(N2CCCC2)CC1 | inhibition | % | 3.67
Cc1onc(-c2ccccc2Cl)c1C(=O)Nc1cnn(Cc2ccccc2)c1 | inhibition | % | 0.33
CCCOc1ccc(NC2=CC(=O)CC(C)(C)C2)cc1 | inhibition | % | 2.13
COc1cc(C(=O)Nc2cccc(-c3nncn3C)c2)cc(OC)c1OC | inhibition | % | -5.5
CCc1ccc(C2CC(c3cccc(OC)c3)n3nc(N)nc3N2)cc1 (configuration not stated) | inhibition | % | 4.83

Problem: inhibition for CC1CCCCC1NC(=O)Cn1ncc2ccccc21 (configuration not stated) ?
Solution: 0.33

###

Kindly state viability increase for each of the entries shown.
- protocol summary: doxorubicin toxicity protection in MRP-1 cells – H69AR cells, CellTiter-Glo, duplicate, MRP-1 activator project, pilot screen (AID 807);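 also: compound pretreatment 18-22 h then 72 h combined with doxorubicin; 0% = doxorubicin alone and 100% = vehicle without doxorubicin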
- reported conditions: H69AR viability with doxorubicin, CellTiter-Glo luminescence; at 10 µM; stronger effect = higher value
One number for each entry, in %.

Some molecules with known viability increase results, for comparison:
molecule | viability increase (%)
Cn1c(=O)[nH]c(=O)c2[nH]c(CN3CCN(Cc4ccccc4)CC3)nc21 | -0.77
O=C(CSc1nnc(Cn2c(=O)sc3ccccc32)n1-c1ccccc1)Nc1nccs1 | -3.44
CCOC(=O)c1cc2c(=O)n3ccccc3nc2n(CCCOC)c1=NC(=O)C(C)(C)C | -2.09
O=C(Nc1nc(-c2ccco2)c(-c2ccco2)s1)C1CC(=O)N(c2ccc3c(c2)OCCO3)C1 (stereo not drawn) | -3.72
O=C(c1ccc(Cl)s1)N1CCN(c2nc3ccccc3s2)CC1 | 0.2

Provide reported viability increase for each item, in the same order as listed.
1. FC(F)(F)c1nc(N2CCN(c3ccccc3)CC2)nc2c1CCCCC2
2. CCOc1ccc(-c2nnc(SCC(=O)N3CCN(c4ccccc4)CC3)o2)cc1

Solution:
[-0.3, -0.66]

Value sought for every listed molecule: viability increase.
1. COc1ccc(OC)c(C2CC(=O)NC(SC)=C2C#N)c1 (stereo not drawn)
2. CCN(CC)C(=O)CCCOc1ccc(Cl)cc1Cl
3. COc1ccc(-c2cn3c(C)c(C(=O)N4CCN(c5ccc(F)cc5)CC4)sc3n2)cc1
4. O=C(Cn1cc2c(n1)CCCCC2)N1CCc2ccccc2C1

Solution:
1: 0.31; 2: 0.07; 3: 0.81; 4: 1.54

List viability increase for every entry below, keeping the order given.
1. CC(=O)c1cccc(NC(=O)CCS(=O)(=O)c2cccc3nonc23)c1
2. Cc1ccc(-c2oc3ccccc3c(=O)c2O)cc1
3. C=CCSC1=C(C#N)C(c2ccc(C(C)C)cc2)CC(=O)N1 (stereo not drawn)
4. CC(C)c1ccc(OC(=O)NCCO)cc1
5. CCCC(=O)C1=C(N(C)c2ccccc2)CC(C)(C)C(C(=O)OC)C1=O (stereo not drawn)

Solution:
1. -3.46
2. -5.56
3. -1.41
4. 0.33
5. -3.32

Would you be so kind as to report viability increase for each listed record?
1. COc1ccc(CNc2oc(-c3ccccc3)nc2C#N)cc1
2. Clc1ccc(SCCCCn2ccnc2)cc1
3. CC1CCN(c2nc3c(c(=O)[nH]c(=O)n3C)n2CCSc2ncccn2)CC1

Solution:
1: 2.09; 2: 0.79; 3: -0.46

###

For each of the compounds below, state its viability.
- protocol summary: Her2 expression decrease, cell viability multiplex – SKBR3 breast tumor cells, AlphaScreen, ATP viability, primary screen (AID 461);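 also: percent of carrier control wells set as 100% viability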
- reported conditions: SKBR3 Her2 protein level, 18-24 h, measured here: SKBR3 viability, ATP luminescence, at 10 µM
One number for each entry, in %.

Here are 2 compounds together with their reported answers.
input smiles | result
Clc1ccc(SCCCCn2ccnc2)cc1 | 90.5
O=C(c1ccc2nc(N3CCCCC3)sc2c1)N1CCN(c2ccccn2)CC1 | 87

Attention now turns to another entry.
Problem: Dear colleague, I am looking for the recorded viability of the following compound: `Cc1c(Cl)cccc1NC(=O)CCN1CCCCC1`
Solution: 100

###

- protocol summary: MRP1 drug-resistance reversers in H69AR cells – cell-based, doxorubicin co-treatment, pilot screen (AID 601)
- reported conditions: H69AR cells + 2 uM doxorubicin, CellTiter-Glo, 72 h; at 10 µM; stronger effect = higher value
Can you tell me differential viability (reversal) for the items I'm about to list?
Give bare numbers, in %.

Some solved cases for reference:
molecule | differential viability (reversal) (%)
Cc1cc(C)cc(N2C(=O)CC(N3CCOCC3)C2=O)c1 (stereo not given) | 98.5
CCOc1ccc(N(C(C)C(=O)NC2CCCCCC2)S(C)(=O)=O)cc1 (stereo not given) | 1.44
O=C(CSC1=NCCS1)NCc1ccco1 | 1.28
O=C(OCn1nnc2ccccc2c1=O)c1cc2ccccc2o1 | -23.7
Cc1cc(OCC(=O)NCCO)cc(C)c1Cl | 8.84

Each molecule below has a recorded value; state its differential viability (reversal).
1. COC(=O)CCCCCc1ccc(C(C)=O)s1
2. COc1ccccc1NC(=O)N(Cc1ccccc1)c1ccccn1
3. COc1ccc(N2CCN(c3oc(COc4ccccc4Cl)nc3C#N)CC2)cc1
4. CC1=C(C(=O)N2CCCCC2)C(c2cccs2)C2=C(CCCC2=O)N1 (stereo not given)
5. COc1ccc(OC)c(NC(=O)CSc2nnc(Cc3cccn3C)n2-c2ccc(F)cc2)c1

Solution:
1. 13.6
2. -5.91
3. 8.78
4. 1.19
5. 7.76

###

- protocol summary: H69AR cell proliferation blockers – human, duplicate replicates, primary screen (AID 580);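 also: 100% = mean luminescence of untreated wells and 0% = no signal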
- reported conditions: H69AR lung tumor cells viability, ATP luminescence, 72 h; at 10 µM; stronger effect = lower value
Calls of active or inactive are those of the source.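 How the source made its calls: active means viability at or under a set limit in both replicates, limit being median viability minus 3 SD (cut at about 48% in these data, passing the limit was not always enough); inconclusive means at or under the limit in just one replicate; inactive means at or above the limit in both replicates.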
Kindly state viability for each of the entries shown.

Guide cases for viability, answers given:
molecule | result
CCCCn1c2c(c3ccccc31)CCc1nonc1-2 | 103% (inactive)
COc1ccc(NC(=O)C2Cc3ccccc3C(=O)O2)cc1 (configuration not stated) | 91.8% (inactive)
O=C(NCc1ccc2c(c1)OCO2)C1CCCN(S(=O)(=O)c2cccc3cccnc23)C1 (configuration not stated) | 83.3% (inactive)
Cc1cccc(OCc2nc(C#N)c(NCCN(C)C)o2)c1 | 84.8% (inactive)
CCCOc1ccc(N2CC(C(=O)Nc3ccc4c(c3)OCO4)CC2=O)cc1 (configuration not stated) | 86.4% (inactive)
COC(=O)CSc1nnc(-c2ccncc2)o1 | 95% (inactive)
COc1ccc(N2CCN(C(=O)C(C)(C)Oc3ccc(Cl)cc3)CC2)cc1 | 68.4% (inactive)
CC(=O)NC(CCS(C)(=O)=O)C(=O)Nc1cccc(C)c1 (configuration not stated) | 94.1% (inactive)

Look up viability for the entries below, preserving their order.
1. COc1ccc(NC(=O)C2CCCN(S(=O)(=O)c3cccc4cccnc34)C2)cc1OC (configuration not stated)
2. Cc1ccccc1CSc1nnc(C)c(=O)[nH]1
3. CCCSc1nnc(N2C(=O)CC(c3ccsc3)C3=C2CCCC3=O)s1 (configuration not stated)
4. Cc1cccc(-n2ncc3c(N(CCO)CCO)ncnc32)c1
5. CC(=O)N(c1ccc(Br)cc1)C1C=CS(=O)(=O)C1 (configuration not stated)

Solution:
67.5% (inactive)
97.2% (inactive)
92.7% (inactive)
90% (inactive)
88.8% (inactive)

Hey, can you go through the list below and give me viability for every item?
1. COc1cccc(C2=NOC(C(=O)Nc3cc(C)nn3-c3ccccc3)C2)c1OC (configuration not stated)
2. CCOC(=O)N1CCC(Nc2ncnc3c2cnn3-c2ccc(C)cc2C)CC1
3. Cc1cccc(C2CC(c3ccccc3)Nc3nc(N)nn32)c1 (configuration not stated)
4. Cc1occc1C(=O)N1CCN(Cc2ccccc2)CC1
5. O=C(CCn1[nH]c(=O)c2ccccc2c1=O)NCCO
6. CC1(C)C(c2ccccc2)=NC(c2ccccc2)N1O (configuration not stated)
7. CC1CCN(C(=O)Cn2cc3c(n2)CCCC3)CC1

Solution:
1: 28.6% (active); 2: 72.7% (inactive); 3: 108% (inactive); 4: 89.3% (inactive); 5: 89.3% (inactive); 6: 91.4% (inactive); 7: 96.4% (inactive)

Working through the 2 molecules below one at a time, give viability for each.
1. CCCSc1nnc2nc3c(nn12)c1ccccc1n3C
2. Clc1ccc(Nc2ncnc3c2cnn3-c2ccccc2)cc1

Solution:
["89.3% (inactive)", "78.7% (inactive)"]
